- Tested on: human erythrocytes
- RUN_DESCRIPTION: Haemolysis assay
- Format: cell-based
- TEST_SETTINGS: concentration causing lysis of 50% of human red blood cells; at least three times in duplicates
No end group written: not given here.
METRIC_NAME: Haemolytic Activity LC50

Reference set (5 entries):
- GKWLKLLKKILK-NH2 [V]: 196 µM
- GKWVKLLKKILK-NH2 [VI]: >400 µM
- GKWMKMLKKILK-NH2 [IV]: >200 µM
- GKWKKLLKKILK-NH2 [III]: >400 µM
- KWMKLLKKILK-NH2 [IX]: >400 µM

Note Haemolytic Activity LC50 for the substance shown: GKWMKLLKKILK-NH2 [I]
339 µM

* * *

- Test system: P. aeruginosa clinical isolate from Liberec Regional Hospital
- RUN_DESCRIPTION: microbe, parasite or virus in culture
- Type: cell-based
- TEST_SETTINGS: clinical isolate Liberec; Bioscreen C; at least three times in duplicates
No end group written: not given here.
For each record, write down the corresponding Antimicrobial Activity MIC, P. a. a.
Answer format reminder: number followed by unit.

• GKWVKLLKKILK-NH2 [VI] = 12.7 µmol/L
• GKWMKMLKKILK-NH2 [IV] = 12.7 µmol/L

Quick batch: Antimicrobial Activity MIC, P. a. a for everything below.
1. GKWLKLLKKILK-NH2 [V]
2. KWMKLLKKILK-NH2 [IX]
3. GKWMKLLKKILK-NH2 [I]

["10.7 µmol/L", "5.8 µmol/L", "10.0 µmol/L"]

Return reported Antimicrobial Activity MIC, P. a. a. Input substance: GKWKKLLKKILK-NH2 [III]
9.5 µmol/L

* * *

- Test system: MRSA clinical isolate from University Hospital in Motol (MRSA (M))
- RUN_DESCRIPTION: microbe, parasite or virus in culture
- Type: cell-based
- TEST_SETTINGS: clinical isolate Motol; Bioscreen C; at least three times in duplicates
No end group written: not given here.
METRIC_NAME: Antimicrobial Activity MIC, MRSA b
Answer by giving the amount and then stating its unit.

Need Antimicrobial Activity MIC, MRSA b for each of these substances.
1. GKWKKLLKKILK-NH2 [III]
2. GKWLKLLKKILK-NH2 [V]
3. GKWVKLLKKILK-NH2 [VI]
4. GKWMKLLKKILK-NH2 [I]
5. GKWMKMLKKILK-NH2 [IV]
6. KWMKLLKKILK-NH2 [IX]

25.3 µM
10.0 µM
10.0 µM
5.7 µM
20.0 µM
17.7 µM

* * *

- Test system: Candida albicans
- Type: cell-based
- TEST_SETTINGS: Bioscreen C; at least three times in duplicates
No end group written: not given here.
Task for the reader: assign each of the following substances its reported Antimicrobial Activity MIC, C. a..
Give bare numbers, in µM.

Below, 5 substances whose answers are already recorded.
* GKWVKLLKKILK-NH2 [VI] | 6.3
* GKWKKLLKKILK-NH2 [III] | 9.5
* GKWLKLLKKILK-NH2 [V] | 16.0
* KWMKLLKKILK-NH2 [IX] | 9.5
* GKWMKMLKKILK-NH2 [IV] | 12.7

Find the measured Antimicrobial Activity MIC, C. a. of GKWMKLLKKILK-NH2 [I] and report it.
5.7
